Measured values drawn from the supplement of paper PMC8371130 for this set.

Each entry below lists one item and its recorded relative cell viability value.
Test system: HL-1
Test: relative cell viability (CellTiter-Glo) vs DMSO control (% of DMSO control); higher = more viable cells
Conditions: oxygen condition: hypoxia 48 h (1% O2) + reoxygenation 24 h; 5000 nM
Counter-ions that a name gives are not always drawn.
Enter the number alone.

Here's what some known entries look like.
compound	tgt	relative cell viability
CC(=O)[C@H]1CC[C@H]2[C@@H]3CCC4=CC(=O)CC[C@]4(C)[C@H]3CC[C@]12C [Progesterone]	HL-1	116
CN1C[C@@H]2C[C@H]1CN2c1cc2c(cc1F)c(=O)c(C(=O)O)cn2C1CC1 [Danofloxacin Mesylate]	HL-1	108
CN1CC(=O)N2[C@H](c3ccc4c(c3)OCO4)c3[nH]c4ccccc4c3C[C@@H]2C1=O [Tadalafil]	HL-1	112
N[C@@H]1CN(c2c(F)cc3c(=O)c(C(=O)O)cn([C@@H]4C[C@@H]4F)c3c2Cl)CC12CC2 [Sitafloxacin hydrate]	HL-1	108
C[C@](N)(Cc1ccc(O)c(O)c1)C(=O)O [Methyldopa]	HL-1	103

Enquiry: Indicate the recorded relative cell viability value for this compound: O=c1cc[nH]c(=S)[nH]1 [2-Thiouracil]
Return: 104

Enquiry: Given the compound COC(=O)C1=C(C)NC(C)=C(C(=O)OCCN(C)Cc2ccccc2)C1c1cccc([N+](=O)[O-])c1 (centres undefined) [Nicardipine HCl] , write its reported relative cell viability.
Return: 114
